// data source = patent US20090227619A1

Tested on: Lewis lung cancer;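 note: mice implanted subcutaneously in the axilla with Lewis lung tumor cells, treated starting the following day, killed roughly three weeks after implantation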
cond: Lewis lung cancer; Dosage 50, ip × 10qd; first time
Property: Weight of the tumor X ± SD, First time; scope: individual compounds
Give your result in g as a bare value.

INSERT INTO assay_data (compound, resultunits, obsvalue) VALUES
  ('c1ccc(Cn2c3ccccc3c3ccncc32)cc1', 'g', 1.83);

Lookup: Consider the compound CCOC(=O)c1cc2c([nH]c3ccccc32)c(C)n1 [Compound 11, ethyl 1-methyl-β-carboline-3-carboxylate] and give its recorded Weight of the tumor X ± SD, First time.
Found: 1.40

Lookup: Consider the compound O=C(O)c1cc2c(cn1)[nH]c1ccccc12 and give its recorded Weight of the tumor X ± SD, First time.
Found: 2.01

Lookup: Consider the compound CCOC(=O)Nc1cc2c3ccccc3n(Cc3ccccc3)c2cn1 and give its recorded Weight of the tumor X ± SD, First time.
Found: 1.96
